- ASSAYED_SYSTEM: Fyn (UniProt P06241)
- Sequence (P06241 whole entry, looked up): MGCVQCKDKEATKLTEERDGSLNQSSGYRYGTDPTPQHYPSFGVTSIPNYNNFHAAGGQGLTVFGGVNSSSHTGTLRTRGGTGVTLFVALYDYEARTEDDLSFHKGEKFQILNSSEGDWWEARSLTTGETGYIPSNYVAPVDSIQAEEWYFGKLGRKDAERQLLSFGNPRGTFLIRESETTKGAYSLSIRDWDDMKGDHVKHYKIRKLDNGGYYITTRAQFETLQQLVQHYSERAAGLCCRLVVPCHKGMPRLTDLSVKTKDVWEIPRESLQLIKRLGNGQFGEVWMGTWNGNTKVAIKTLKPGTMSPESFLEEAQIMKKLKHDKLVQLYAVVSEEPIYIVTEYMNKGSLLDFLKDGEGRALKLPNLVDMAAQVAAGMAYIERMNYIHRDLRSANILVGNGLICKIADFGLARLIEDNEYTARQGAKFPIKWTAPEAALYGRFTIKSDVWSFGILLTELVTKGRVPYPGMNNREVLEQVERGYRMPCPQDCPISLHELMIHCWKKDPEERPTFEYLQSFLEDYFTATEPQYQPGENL
- METHOD_NOTES: phosphorylation enrichment, bacterial display (enrichment ratio); higher = better substrate or ligand; peptides without Tyr show the background
Use criterion met when the recorded phosphorylation enrichment is no lower than 0.5; use criterion not met when it is lower.

-- ask Say whether RRGMPYGGCGD [TGM1_Y312_R315C] shows phosphorylation enrichment of 0.5 or more.
-- reply criterion met

-- ask Entry RIGRKYKKVRF [F8_Y442] : is its phosphorylation enrichment no less than 0.5?
-- reply criterion not met

-- ask Hi, just wondering whether GFSDPYVKASL [SYT3_Y470] shows phosphorylation enrichment of 0.5 or higher.
-- reply criterion not met

-- ask Please check the record CNPLRYPTIMI [OR6K6_Y160] and state if its phosphorylation enrichment is at or above 0.5.
-- reply criterion met

-- ask Answer whether phosphorylation enrichment of KFLVGYEMLAQ [GALT_Y339_M336L] is greater than or equal to 0.5.
-- reply criterion not met

-- ask Determine whether this sequence has phosphorylation enrichment no lower than 0.5: MALDIYRASFF [ALK_Y1278_R1275L_YF]
-- reply criterion met

-- ask Is phosphorylation enrichment for LEDDVYRKTCT [XPA_Y257_M256V] at or above 0.5?
-- reply criterion met

----------
- ASSAYED_SYSTEM: Fyn (UniProt P06241)
- METHOD_NOTES: phosphorylation enrichment, bacterial display (enrichment ratio); higher = better substrate or ligand; peptides without Tyr show the background
For each entry below, report its phosphorylation enrichment value.
Lab note: record the figure alone, no unit after it.

-- ask Dear colleague, I am looking for the recorded phosphorylation enrichment of the following sequence: ALCHFYKLNII [ETV6_Y402_R399C_YF]
-- reply 0.537

-- ask // returns reported phosphorylation enrichment for input DLFRLYICVKE [ARID1B_Y1091_V1092I]
-- reply 0.456

-- ask What does the record list as phosphorylation enrichment for ESSKAYERALS [TTC37_Y1074] ?
-- reply 0.412

-- ask phosphorylation enrichment for KNKNRYKNILP [PTPN11_Y279] ?
-- reply 0.644

-- ask What does the record list as phosphorylation enrichment for ICRWVYPLTPE [EIF2B5_Y319_R315C] ?
-- reply 0.528

-- ask Param item = DCLASYLDKVR [KRT10_Y160_R156C] ; retrieve measured phosphorylation enrichment.
-- reply 0.422

-- ask Given SRGSSYSSIPK [FLNC_Y2625] , state its recorded phosphorylation enrichment.
-- reply 0.358

-- ask Form field: reported phosphorylation enrichment of NFFEFYVDDPP [GCHFR_Y48_YF]
-- reply 0.569

-- ask Look up phosphorylation enrichment: GGDQPYSGAGD [TYRO3_Y828_R824G]
-- reply 0.453

-- ask What does the record list as phosphorylation enrichment for VTQEQYELFCE [CBL_Y368_YF] ?
-- reply 0.599

-- ask Would you mind telling me what phosphorylation enrichment value was observed for ENFSEYQEISV [HEMGN_Y150_A154S] ?
-- reply 0.594

-- ask Need phosphorylation enrichment of EVASVYESYQP [MAVS_Y92_Q93E] , thanks.
-- reply 8.41

-- ask Which value of phosphorylation enrichment has been reported for FLNSIYKSRDE [ROS1_Y2227] in the records?
-- reply 0.444

-- ask Recorded phosphorylation enrichment of KACNPYKPPGP , please.
-- reply 0.521

----------
- ASSAYED_SYSTEM: c-Src SH2;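 note: peptide library displayed on the E. coli surface as eCPX fusions, selected cells deep-sequenced, score is each peptide's frequency after selection divided by its frequency in the input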
- METHOD_NOTES: SH2 binding enrichment of the phosphorylated peptide, bacterial display (enrichment ratio); higher = better substrate or ligand; peptides without Tyr show the background
Label Met when SH2 binding enrichment is at or above 0.7; anything below gets Not met.

-- ask SH2 binding enrichment >= 0.7 for ASMAKYYASGI [ACADSB_Y372_E376G] ?
-- reply Not met

-- ask Can VGTKQYMAPEV [ACVRL1_Y375_R374Q] be said to have SH2 binding enrichment at or above 0.7?
-- reply Not met

-- ask Say whether FQQLFYLLQTN [IQGAP2_Y890_YF] shows SH2 binding enrichment of 0.7 or more.
-- reply Met

-- ask Answer whether SH2 binding enrichment of GSRGKYSSGFR [ATM_Y332] is greater than or equal to 0.7.
-- reply Met

-- ask Dear colleague, could you confirm whether RMDGKYACSFT [FLNB_Y704_T703K_YF] has SH2 binding enrichment at or above 0.7?
-- reply Not met

-- ask Test whether the sequence GIVKAYYVHAR [AIPL1_Y267_R270H] records SH2 binding enrichment of 0.7 or higher.
-- reply Met

-- ask Entry ESAAIYNPVIF [RHO_Y301_K296E_YF] : is its SH2 binding enrichment no less than 0.7?
-- reply Not met

-- ask Please tell me: is the sequence DDPRRYQKYGY [OAS1_Y362] at or over 0.7 in terms of SH2 binding enrichment?
-- reply Met

-- ask # bool: SH2 binding enrichment of NNHGNYIVRLG [ETFDH_Y172] >= 0.7
-- reply Met

-- ask Would you say YDEYRYRSFIK [CFTR_Y517_V520F] shows SH2 binding enrichment at minimum 0.7?
-- reply Met

-- ask Exam item: decide whether the reported SH2 binding enrichment for DQIDTYELSGA [DNM1_Y354_G359A] is at least 0.7.
-- reply Not met

-- ask Textbook exercise: given the entry KVGNEYITKGQ [MYH7_Y410_V411I] , state whether its SH2 binding enrichment is greater than or equal to 0.7.
-- reply Not met

-- ask I'd appreciate it if you could say whether IFRASYVPFAA [RBM47_Y541_G538R_YF] has SH2 binding enrichment at least equal to 0.7.
-- reply Not met

-- ask Check the entry SVVVPHEPPEV [TP53_Y220_Y220H] : does SH2 binding enrichment equal or exceed 0.7?
-- reply Not met

-- ask Determine whether measured SH2 binding enrichment meets or exceeds 0.7 for SAGSSYSISSI [PAX5_Y179_G183S]
-- reply Not met

-- ask Reported SH2 binding enrichment at or above 0.7? DKPENYRRLDI [VHL_Y175_V170D]
-- reply Not met

-- ask Is it the case that LGKGSYAKVKS [TSSK2_Y23] has SH2 binding enrichment reaching or exceeding 0.7?
-- reply Met

-- ask Can CTNPRYLAAGS [RABL3_Y185] be said to have SH2 binding enrichment at or above 0.7?
-- reply Not met

-- ask Quick check: does LHRHAYPEQRQ [DPPA2_Y127] have SH2 binding enrichment greater than or equal to 0.7?
-- reply Met

-- ask Assess whether reported SH2 binding enrichment for DGQSVYKLTDF [TBK1_Y153] sits at 0.7 or higher.
-- reply Not met

-- ask API: above_or_equal(metric=SH2 binding enrichment, cutoff=0.7) for item FVTSMYNEILM [TRPV1_Y310]
-- reply Met

-- ask Could you verify whether the entry NYCPGYNNFYN [USH2A_Y467_R464C] shows SH2 binding enrichment of no less than 0.7?
-- reply Met

-- ask // inclusive: SH2 binding enrichment at least 0.7? input: FTGDIYSSSNL [LZTR1_Y141_N143S_YF]
-- reply Not met

-- ask Is reported SH2 binding enrichment greater than or equal to 0.7 here: IAKNPYDPPGR
-- reply Not met

-- ask Would you say LNYNEYFRDLN [HPRT1_Y198_D194N] shows SH2 binding enrichment at minimum 0.7?
-- reply Not met

-- ask Is SH2 binding enrichment at least 0.7? Consider LAEMNYVHQDL [EPHB1_Y740_R743Q]
-- reply Not met

-- ask // inclusive: SH2 binding enrichment at least 0.7? input: FLAVGYHKPFI [IDS_Y225_H229Y_YF]
-- reply Met

-- ask Record KIEGVYARDET [RPL35A_Y34] ; criterion: SH2 binding enrichment no lower than 0.7. Met?
-- reply Not met

----------
- ASSAYED_SYSTEM: Fes (UniProt P07332)
- Sequence (P07332 whole entry, looked up): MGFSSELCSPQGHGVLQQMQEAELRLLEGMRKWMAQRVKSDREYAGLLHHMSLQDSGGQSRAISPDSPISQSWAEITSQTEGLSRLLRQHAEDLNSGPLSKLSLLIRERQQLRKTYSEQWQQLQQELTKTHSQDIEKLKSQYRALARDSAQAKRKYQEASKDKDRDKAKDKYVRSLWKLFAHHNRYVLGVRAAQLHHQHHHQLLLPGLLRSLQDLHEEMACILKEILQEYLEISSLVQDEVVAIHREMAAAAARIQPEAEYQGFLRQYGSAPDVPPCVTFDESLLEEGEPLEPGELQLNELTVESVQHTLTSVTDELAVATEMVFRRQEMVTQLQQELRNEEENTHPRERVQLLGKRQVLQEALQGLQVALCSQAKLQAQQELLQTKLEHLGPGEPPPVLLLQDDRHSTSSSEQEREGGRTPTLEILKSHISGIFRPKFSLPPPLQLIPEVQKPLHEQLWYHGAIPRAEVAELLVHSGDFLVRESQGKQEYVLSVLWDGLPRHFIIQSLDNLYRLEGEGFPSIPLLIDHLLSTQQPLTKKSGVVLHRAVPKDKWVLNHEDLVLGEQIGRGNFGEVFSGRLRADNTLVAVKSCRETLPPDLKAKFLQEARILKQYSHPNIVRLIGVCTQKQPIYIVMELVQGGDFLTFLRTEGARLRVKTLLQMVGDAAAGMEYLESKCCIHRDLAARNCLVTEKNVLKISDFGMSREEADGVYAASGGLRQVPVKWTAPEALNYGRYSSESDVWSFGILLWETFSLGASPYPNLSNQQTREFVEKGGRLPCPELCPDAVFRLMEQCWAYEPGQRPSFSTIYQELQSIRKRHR
- METHOD_NOTES: phosphorylation enrichment, bacterial display (enrichment ratio); higher = better substrate or ligand; peptides without Tyr show the background
Class condition met: phosphorylation enrichment at least 0.9. Class condition not met: phosphorylation enrichment below 0.9.

-- ask Hi team, for KKMKRYHVGKV [HARS2_Y151] , is the recorded phosphorylation enrichment at or above 0.9?
-- reply condition not met

-- ask Tell me whether phosphorylation enrichment is at least 0.9 here: QWRTKYEMDAI [MYH7_Y1375_T1377M]
-- reply condition met

-- ask Confirm if phosphorylation enrichment reported for the sequence PRLMLYNPTTF [EGFR_Y270_P266R_YF] is 0.9 or above.
-- reply condition met

-- ask Dear colleague, could you confirm whether RRGMPYGGCGD [TGM1_Y312_R315C] has phosphorylation enrichment at or above 0.9?
-- reply condition not met

-- ask Given the entry IGNGFYFRVFS [MYBPC3_Y1136_YF] , answer whether its phosphorylation enrichment meets or surpasses 0.9.
-- reply condition met

-- ask Has KASIMYPSNNC [CXCL11_Y52] a recorded phosphorylation enrichment greater than or equal to 0.9?
-- reply condition not met

-- ask Hi, just wondering whether EAESWYQTKFE [KRT75_Y342_YF] shows phosphorylation enrichment of 0.9 or higher.
-- reply condition met

-- ask API: above_or_equal(metric=phosphorylation enrichment, cutoff=0.9) for item KKKKQYKDKYL [CASK_Y708]
-- reply condition not met

-- ask API: above_or_equal(metric=phosphorylation enrichment, cutoff=0.9) for item AKIDGYITSFR
-- reply condition met

-- ask Item LDLPGYCLLRE [CCDC116_Y291_P293L] with phosphorylation enrichment of 0.9 or above?
-- reply condition met

-- ask Would you say KNKNRSKNILP [PTPN11_Y279_Y279S] shows phosphorylation enrichment at minimum 0.9?
-- reply condition not met

-- ask Item STLEVYRCHPP [IL21R_Y317_S318R] with phosphorylation enrichment of 0.9 or above?
-- reply condition met

-- ask # check: phosphorylation enrichment of SSFDIYHLSRE [KIR3DL2_Y253_YF] is greater than or equal to 0.9
-- reply condition met

-- ask Confirm if phosphorylation enrichment reported for the sequence TCFDKYTGSTY [FN1_Y101_N104S] is 0.9 or above.
-- reply condition not met

-- ask Determine whether this sequence has phosphorylation enrichment no lower than 0.9: LGMSQYFRLFN [CPT2_Y217_D213G]
-- reply condition met

-- ask In plain terms: is recorded phosphorylation enrichment at least 0.9 for FAFQLYDLDRD [CHP2_Y123_YF] ?
-- reply condition met

-- ask Please indicate if the recorded phosphorylation enrichment for QDDTVYMGKVT [DCTN1_Y1244] meets or exceeds 0.9.
-- reply condition met

-- ask Determine whether this sequence has phosphorylation enrichment no lower than 0.9: REQREYLDQLN [CCDC88B_Y1277]
-- reply condition met

-- ask Identify whether the reported phosphorylation enrichment of the following sequence is 0.9 or greater: VERRVYAEDPF [PCCA_Y401_C398R_YF]
-- reply condition not met

-- ask Check if phosphorylation enrichment >= 0.9 (inclusive). Item: TTKGSYSLFVR [HCK_Y180_S183Y_YF]
-- reply condition met

-- ask Is reported phosphorylation enrichment greater than or equal to 0.9 here: KPVEEYANCHL [TF_Y593]
-- reply condition met

-- ask Given the entry NGEDLYAGSTD [XRCC1_Y515_P514L] , answer whether its phosphorylation enrichment meets or surpasses 0.9.
-- reply condition met

-- ask In plain terms: is recorded phosphorylation enrichment at least 0.9 for SSKILYHIIKG [CDH17_Y489] ?
-- reply condition not met

-- ask Evaluate NTEGGYRCICA [CRELD1_Y328] : phosphorylation enrichment at minimum 0.9?
-- reply condition met

-- ask Check the entry RRIHSYRGHLC [VHL_Y112_W117C] : does phosphorylation enrichment equal or exceed 0.9?
-- reply condition met

-- ask Hi, just wondering whether NFRTTYVNANE [KCNH2_Y475] shows phosphorylation enrichment of 0.9 or higher.
-- reply condition met

-- ask Decide: phosphorylation enrichment of DKPENYRRLDI [VHL_Y175_V170D] >= 0.9?
-- reply condition not met
